# credit: patent US8546392B2

SYSTEM_NAME: 17β-HSD1 (Homo sapiens (Human), UniProt P14061)
Sequence (P14061 whole entry): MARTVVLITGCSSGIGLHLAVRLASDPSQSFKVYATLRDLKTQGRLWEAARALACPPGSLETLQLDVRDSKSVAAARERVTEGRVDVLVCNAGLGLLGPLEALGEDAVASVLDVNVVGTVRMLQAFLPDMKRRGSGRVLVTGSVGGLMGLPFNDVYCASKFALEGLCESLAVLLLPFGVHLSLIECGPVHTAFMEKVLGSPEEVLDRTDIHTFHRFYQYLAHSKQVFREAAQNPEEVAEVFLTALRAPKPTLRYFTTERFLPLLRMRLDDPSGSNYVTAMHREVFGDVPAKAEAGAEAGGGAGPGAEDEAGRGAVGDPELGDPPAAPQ
ASSAY_NOTES: 17β-HSD1 test assay (recombinant protein from Sf9 insect cells, 3H-estrone/NADPH)
Assay type: biochemical
EXPERIMENTAL_CONDITIONS: read-out: HSD1 100 nM (% inhibition); inhibitor 100 nM
Lab note: anything with inhibition at 0.1 µM at or over 40% counts as true (1); the rest go in false (0).

Worked cases, answers included:
// query Determine whether this compound has inhibition at 0.1 µM no lower than 40%: CNC(=O)c1c(O)ccc2cc(-c3cccc(O)c3)ccc12
// result false (0)

// query Determine whether this compound has inhibition at 0.1 µM no lower than 40%: N#Cc1cc(-c2cccc(O)c2)cc2ccc(O)cc12
// result false (0)

// query Determine whether this compound has inhibition at 0.1 µM no lower than 40%: N#Cc1ccccc1S(=O)(=O)Nc1cccc(-c2c(O)ccc3cc(-c4cccc(O)c4)ccc23)c1
// result true (1)

// query Determine whether this compound has inhibition at 0.1 µM no lower than 40%: CC(=O)Nc1ccc(S(=O)(=O)Nc2cccc(-c3c(O)ccc4cc(-c5cccc(O)c5)ccc34)c2)cc1
// result true (1)

// query Determine whether this compound has inhibition at 0.1 µM no lower than 40%: CC(=O)Nc1cccc(-c2ccc3cc(O)ccc3c2)c1
// result false (0)

***
// query Determine whether this compound has inhibition at 0.1 µM no lower than 40%: O=C(Nc1ccccn1)c1c(O)ccc2cc(-c3cccc(O)c3)ccc12
// result false (0)

// query Determine whether this compound has inhibition at 0.1 µM no lower than 40%: Oc1cccc(-c2cnc3ccccc3c2)c1
// result false (0)
